All figures here come from patent US7589213B2.

# TESTED_ON: EP2 (Homo sapiens, UniProt P43116)
# Sequence (P43116 whole entry): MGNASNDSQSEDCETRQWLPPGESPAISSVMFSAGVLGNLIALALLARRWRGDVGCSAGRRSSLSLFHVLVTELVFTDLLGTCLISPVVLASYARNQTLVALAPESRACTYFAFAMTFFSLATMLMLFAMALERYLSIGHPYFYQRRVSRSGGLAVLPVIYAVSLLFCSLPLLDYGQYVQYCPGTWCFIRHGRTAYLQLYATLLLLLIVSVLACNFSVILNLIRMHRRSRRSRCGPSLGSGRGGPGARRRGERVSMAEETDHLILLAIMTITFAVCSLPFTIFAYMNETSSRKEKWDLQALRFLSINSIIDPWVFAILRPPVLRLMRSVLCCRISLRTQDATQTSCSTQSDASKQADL
# ASSAY_NOTES: EP2 flipr assay
# Type: cell-based
pEC50: −log10 of the molar value.
PROPERTY_NAME: pEC50

                                   molecule  property_name  meas_value
0  CCCCCCC(O)c1ccc(N2C(=O)CC[C@@H]2CCSc2nc(C(=O)O)cs2)cc1 (some centres unmarked) [compound 33]          pEC50        8.52
1  CCCCCC(F)c1ccc(N2C(=O)CC[C@@H]2COCc2csc(C(=O)O)c2)cc1 (some centres unmarked)          pEC50        5.30
2  CCCCCCC(=O)c1ccc(N2C(=O)CC[C@@H]2CCSc2nc(C(=O)O)cs2)cc1          pEC50        7.35
3  CCCCCC(O)c1ccc(N2C(=O)CC[C@@H]2CCSc2nc(C(=O)O)cs2)cc1 (some centres unmarked) [compound 14]          pEC50        7.44
4  CCCCCC(F)c1ccc(N2C(=O)CC[C@@H]2CSc2nc(C(=O)O)cs2)cc1 (some centres unmarked)          pEC50        6.67
5  CCCCCC(O)c1ccc(N2C(=O)CC[C@@H]2COCc2csc(C(=O)O)c2)cc1 (some centres unmarked)          pEC50        5.60
6  CCCCCCC(O)c1ccc(N2C(=O)CC[C@@H]2CCSc2nc(C(=O)O)cs2)cc1 (single isomer, unassigned) [compound 36]          pEC50        7.24
7  CCCCCC(F)c1ccc(N2C(=O)CC[C@@H]2COCc2cc(C(=O)O)cs2)cc1 (some centres unmarked)          pEC50        5.41
